molecules and their reported pEC50
tested on: Human immunodeficiency virus 1; assay type: functional, cell-based; conditions: Human immunodeficiency virus 1, MT4, 120 h
Answer as the number alone; pEC50 is minus log10 of concentration in mol/L.

molecule	measured property	readout number
CC(C)Nc1cccnc1N1CCN(C(=O)c2cc3cc(NS(C)(=O)=O)ccc3[nH]2)CC1 [DELAVIRDINE]	pEC50	6.26

Task item: Can you share its pEC50? I mean this molecule: Cc1cc(C#N)cc(C)c1Oc1nc(Nc2ccc(C#N)cc2)nc(N)c1Br [ETRAVIRINE]
Reply: 7.82

Task item: Can you share its pEC50? I mean this molecule: Cc1ccnc2c1NC(=O)c1cccnc1N2C1CC1 [NEVIRAPINE]
Reply: 5.36

Task item: Can you share its pEC50? I mean this molecule: O=C1Nc2ccc(Cl)cc2[C@@](C#CC2CC2)(C(F)(F)F)O1 [EFAVIRENZ]
Reply: 7.04

* * *

system: Human immunodeficiency virus 1; assay type: functional, cell-based; settings: Human immunodeficiency virus 1, MT4, 120 h
measured property: pEC50
Answer as the number alone; pEC50 is minus log10 of concentration in mol/L.

Known pEC50 results, listed for orientation:
compound	pEC50
O=C1Nc2ccc(Cl)cc2[C@@](C#CC2CC2)(C(F)(F)F)O1 [EFAVIRENZ]	7.12
Cc1cc(C)cc(S(=O)(=O)c2c(C(=O)NCC3CCN(CCO)CC3)[nH]c3ccc(Cl)cc23)c1	6.21
CC(C)Nc1cccnc1N1CCN(C(=O)c2cc3cc(NS(C)(=O)=O)ccc3[nH]2)CC1 [DELAVIRDINE]	5.59
Cc1ccnc2c1NC(=O)c1cccnc1N2C1CC1 [NEVIRAPINE]	5.46

Lab note: next compound to report on.
Task item: Can you share its pEC50? I mean this compound: Cc1cc(C)cc(S(=O)(=O)c2c(C(=O)NC3CCN(CCO)CC3)[nH]c3ccc(Br)cc23)c1
Reply: 6.66

* * *

compounds and their reported selectivity ratio
test: in vitro; conditions: human, MT4 cells
Description: Selectivity index, ratio of CC50 for human MT4 cells to EC50 for HIV1 expressing reverse transcriptase K103N mutant
// return a plain number; no unit text

Known selectivity ratio results, listed for orientation:
CC(C)Nc1cccnc1N1CCN(C(=O)c2cc3cc(NS(C)(=O)=O)ccc3[nH]2)CC1 18
Cc1cc(C)cc(S(=O)(=O)c2c(C(=O)NC3CCN(CCO)CC3)[nH]c3ccc(Br)cc23)c1 74

Lab note: next compound to report on.
Task item: Can you share its selectivity ratio? I mean this compound: Cc1cc(C)cc(S(=O)(=O)c2c(C(=O)NCC3CCN(CCO)CC3)[nH]c3ccc(Cl)cc23)c1
Reply: 21

* * *

tested on: Human immunodeficiency virus 1; assay: microbe, parasite or virus in culture; details: Human immunodeficiency virus 1, MT4, 120 h
Description: Antiviral activity against HIV1 expressing reverse transcriptase L100I mutant infected in human MT4 cells assessed as protection against virus-induced cytopathic effect after 5 days by MTT assay
measured property: EC50 (nM)
Quick note: give the figure in nM, leave out the unit.

Known EC50 results, listed for orientation:
molecule	target or test system	value unit	EC50
Cc1cc(C)cc(S(=O)(=O)c2c(C(=O)NC3CCN(CCO)CC3)[nH]c3ccc(Br)cc23)c1	Human immunodeficiency virus 1	nM	17
Cc1cc(C#N)cc(C)c1Oc1nc(Nc2ccc(C#N)cc2)nc(N)c1Br [ETRAVIRINE]	Human immunodeficiency virus 1	nM	9
Cc1cc(C)cc(S(=O)(=O)c2c(C(=O)NCC3CCN(CCO)CC3)[nH]c3ccc(Cl)cc23)c1	Human immunodeficiency virus 1	nM	110

Lab note: next molecule to report on.
Task item: Can you share its EC50? I mean this molecule: CC(C)Nc1cccnc1N1CCN(C(=O)c2cc3cc(NS(C)(=O)=O)ccc3[nH]2)CC1 [DELAVIRDINE]
Reply: 3500

* * *

compounds and their reported CC50 at 120 h
experiment: Cytotoxicity against human MT4 cells assessed as decrease in cell viability after 5 days by MTT assay; format: cell-based
Quick note: give the figure in µM, leave out the unit.

Known CC50 at 120 h results, listed for orientation:
CCOC(=O)CCN1CCC(CNC(=O)c2[nH]c3ccc(Cl)cc3c2S(=O)(=O)c2cc(C)cc(C)c2)CC1 19.2
Cc1cc(C)cc(S(=O)(=O)c2c(C(=O)NCC3CCN(CCO)CC3)[nH]c3ccc(Cl)cc23)c1 6.7

Lab note: next compound to report on.
Task item: Can you share its CC50 at 120 h? I mean this compound: Cc1cc(C)cc(S(=O)(=O)c2c(C(=O)NC3CCN(CCO)CC3)[nH]c3ccc(Br)cc23)c1
Reply: 6.3

* * *

compounds and their reported selectivity ratio
assay: in vitro; settings: human, MT4 cells
Description: Selectivity index, ratio of CC50 for human MT4 cells to EC50 for HIV1 expressing reverse transcriptase F227L/V106A double mutant
// return a plain number; no unit text

compound	selectivity ratio
CC(C)Nc1cccnc1N1CCN(C(=O)c2cc3cc(NS(C)(=O)=O)ccc3[nH]2)CC1 [DELAVIRDINE]	17
Cc1cc(C)cc(S(=O)(=O)c2c(C(=O)NCC3CCN(CCO)CC3)[nH]c3ccc(Cl)cc23)c1	11

Lab note: next compound to report on.
Task item: Can you share its selectivity ratio? I mean this compound: Cc1cc(C)cc(S(=O)(=O)c2c(C(=O)NC3CCN(CCO)CC3)[nH]c3ccc(Br)cc23)c1
Reply: 28

* * *

test: Cytotoxicity against human MT4 cells assessed as decrease in cell viability after 5 days by MTT assay; type: cell-based
measured property: CC50 at 120 h

Known CC50 at 120 h results, listed for orientation:
CC(C)Nc1cccnc1N1CCN(C(=O)c2cc3cc(NS(C)(=O)=O)ccc3[nH]2)CC1 > 43.8 µM
Cc1ccnc2c1NC(=O)c1cccnc1N2C1CC1 > 15 µM

Lab note: next compound to report on.
Task item: Can you share its CC50 at 120 h? I mean this compound: O=C1Nc2ccc(Cl)cc2[C@@](C#CC2CC2)(C(F)(F)F)O1
Reply: > 6.3 µM
